- PROCEDURE DETAILS: Mouse PK
- Format: in vivo
- RUN PARAMETERS: plasma, oral, read-out: Mouse PK F %
ASSAY READOUT: bioavailability (%)
Please reply with the bare figure in % and do not write the unit itself.

Briefly, bioavailability measured for `CC(C)[C@H]1CN(C)CCN1Cc1cc(C(=O)Nc2cccc(C3(Cc4nncn4C)CC(F)(F)C3)c2)nc(C2CC2)c1` : 3.4

---

- PROCEDURE DETAILS: Kinetic solubility
- Type: physicochemical
- RUN PARAMETERS: kinetic from dmso stock; read-out: Kinet. Solub.
ASSAY READOUT: solubility (µM)
Please reply with the bare figure in µM and do not write the unit itself.

Briefly, solubility measured for CC(C)[C@H]1CN(C)CCN1Cc1cc(C(=O)Nc2cccc(C3(Cc4nncn4C)CC(F)(F)C3)c2)nc(C2CC2)c1 [Compound 224] : 8.3
